protocol details: physchem
conditions: 50% aqueous ethanol, aqueous with cosolvent or surfactant or cyclodextrin, thermodynamic from solid, room temperature
measured quantity: solubility (mg/mL)
Give the number; mg/mL is assumed, so skip it.

(Q) Would you mind telling me what solubility value was observed for CNC(=O)N1CCN(Cc2ccnc(Nc3ncc(C#N)s3)c2)CC1 [Form C] ?
(A) 10.4

* * *

protocol details: physchem
conditions: 50% aqueous IPA, aqueous with cosolvent or surfactant or cyclodextrin, thermodynamic from solid, room temperature
measured quantity: solubility
# include the unit after the value

(Q) Would you mind telling me what solubility value was observed for CNC(=O)N1CCN(Cc2ccnc(Nc3ncc(C#N)s3)c2)CC1 [Form C] ?
(A) 12.3 mg/mL
